targetDesc: Angiotensin-converting enzyme (Rattus norvegicus)
protocolDetails: Inhibition of Angiotensin I converting enzyme(ACE) at the dose of 100 mg/kg (po) in rat
Type: organism-based
Parameters: dose 100 mg/kg
endpointLabel: ACE inhibition (%)

The following compounds have reported results that may help.
compound="Br.C[C@H](N[C@@H](CCc1ccccc1)C(=O)O)C(=O)N(C1CCC2(CC1)Nc1cc(Cl)c(S(N)(=O)=O)cc1S(=O)(=O)N2)C(CCCCN)C(=O)O (stereo not given in full)" endpointlabel="ACE inhibition" valuemeasured=50
compound="C[C@H](N[C@@H](CCc1ccccc1)C(=O)O)C(=O)N(CCCC1Nc2cc(Cl)c(S(N)(=O)=O)cc2S(=O)(=O)N1)CC(=O)O.Cl (stereo not given in full)" endpointlabel="ACE inhibition" valuemeasured=100

[a] CCOC(=O)[C@H](CCc1ccccc1)N[C@@H](C)C(=O)N(CC(=O)O)N(C)CC1Nc2cc(Cl)c(S(N)(=O)=O)cc2S(=O)(=O)N1.Cl (stereo not given in full)
[b] C[C@H](N[C@@H](CCc1ccccc1)C(=O)O)C(=O)N(CC(=O)O)C1CCC2(CC1)Nc1cc(Cl)c(S(N)(=O)=O)cc1S(=O)(=O)N2 (stereo not given in full)
Problem: For the pair a and b , which member has the lower ACE inhibition number? Output the label that corresponds to your choice.
Result: a

* * *

targetDesc: Angiotensin-converting enzyme (Rattus norvegicus) (UniProt P47820)
Sequence (whole entry): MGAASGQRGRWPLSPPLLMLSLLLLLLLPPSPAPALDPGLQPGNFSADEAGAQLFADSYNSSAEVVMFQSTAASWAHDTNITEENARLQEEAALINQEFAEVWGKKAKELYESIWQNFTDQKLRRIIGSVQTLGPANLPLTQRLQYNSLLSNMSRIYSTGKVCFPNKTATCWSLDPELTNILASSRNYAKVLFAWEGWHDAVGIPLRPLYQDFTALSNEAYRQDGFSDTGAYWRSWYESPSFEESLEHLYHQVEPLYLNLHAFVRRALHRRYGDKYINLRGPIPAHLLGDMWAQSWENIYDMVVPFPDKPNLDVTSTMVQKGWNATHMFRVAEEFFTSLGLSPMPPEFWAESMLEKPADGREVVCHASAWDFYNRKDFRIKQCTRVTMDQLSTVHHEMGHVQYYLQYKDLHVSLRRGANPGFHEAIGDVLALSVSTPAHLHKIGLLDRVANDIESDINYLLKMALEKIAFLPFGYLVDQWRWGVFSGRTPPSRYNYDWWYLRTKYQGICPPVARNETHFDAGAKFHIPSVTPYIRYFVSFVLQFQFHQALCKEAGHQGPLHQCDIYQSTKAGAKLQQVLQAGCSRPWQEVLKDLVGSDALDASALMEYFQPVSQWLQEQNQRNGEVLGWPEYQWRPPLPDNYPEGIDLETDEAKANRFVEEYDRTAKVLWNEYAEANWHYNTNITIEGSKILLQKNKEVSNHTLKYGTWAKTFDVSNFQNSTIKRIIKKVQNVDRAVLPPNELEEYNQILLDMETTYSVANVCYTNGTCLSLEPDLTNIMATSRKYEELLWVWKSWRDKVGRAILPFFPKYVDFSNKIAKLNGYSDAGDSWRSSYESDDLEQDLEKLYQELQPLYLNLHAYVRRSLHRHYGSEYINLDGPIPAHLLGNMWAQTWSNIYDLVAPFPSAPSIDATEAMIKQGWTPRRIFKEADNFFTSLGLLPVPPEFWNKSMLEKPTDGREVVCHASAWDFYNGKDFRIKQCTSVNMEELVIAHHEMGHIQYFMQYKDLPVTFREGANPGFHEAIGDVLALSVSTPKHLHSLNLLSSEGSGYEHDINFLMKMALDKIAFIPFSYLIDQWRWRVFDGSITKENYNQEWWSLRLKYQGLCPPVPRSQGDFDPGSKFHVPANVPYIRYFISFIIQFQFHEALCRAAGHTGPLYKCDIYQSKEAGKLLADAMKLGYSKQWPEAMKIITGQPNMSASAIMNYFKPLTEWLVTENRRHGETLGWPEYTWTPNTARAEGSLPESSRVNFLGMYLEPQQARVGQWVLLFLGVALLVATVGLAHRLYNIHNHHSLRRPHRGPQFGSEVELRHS
protocolDetails: Inhibition of Angiotensin I converting enzyme(ACE) at the dose of 10 mg/kg (po) in rat
Type: organism-based
Design: dose 10 mg/kg
endpointLabel: ACE inhibition (%)

The following compounds have reported results that may help.
compound=C[C@H](N[C@@H](CCc1ccccc1)C(=O)O)C(=O)N(Cc1ccccc1)[C@H](CCCCNc1cc(Cl)c(C(=O)O)cc1S(N)(=O)=O)C(=O)O.Cl valuemeasured=80
compound="Cl.NCCCC[C@H](N[C@@H](CCc1ccccc1)C(=O)O)C(=O)N(CC(=O)O)CC1Nc2cc(Cl)c(S(N)(=O)=O)cc2S(=O)(=O)N1 (some centres undefined)" valuemeasured=80
compound="C[C@H](N[C@@H](CCc1ccccc1)C(=O)O)C(=O)N(CC(=O)O)CC1Nc2cc(Cl)c(S(N)(=O)=O)cc2S(=O)(=O)N1 (some centres undefined)" valuemeasured=50

[a] Cl.NS(=O)(=O)c1cc(C(=O)NCCCC[C@H](N[C@@H](CCc2ccccc2)C(=O)O)C(=O)N2CCC[C@H]2C(=O)O)ccc1Cl
[b] CCOC(=O)[C@H](CCc1ccccc1)N[C@@H](CCCCNC(=O)c1ccc(Cl)c(S(N)(=O)=O)c1)C(=O)N(CC(=O)O)C1Cc2ccccc2C1.Cl
Problem: Which of the two gives a bigger number for ACE inhibition: a or b ? Output the label that corresponds to your choice.
Result: a
(a: 80%, b: 50%)

[P] CCOC(=O)[C@H](CCc1ccccc1)N[C@@H](CCCCNC(=O)c1ccc(Cl)c(S(N)(=O)=O)c1)C(=O)N1CCC[C@H]1C(=O)O.Cl
[Q] C[C@H](N[C@@H](CCc1ccccc1)C(=O)O)C(=O)N(CCCC1Nc2cc(Cl)c(S(N)(=O)=O)cc2S(=O)(=O)N1)CC(=O)O.Cl (some centres undefined)
Problem: For the pair P and Q , which member has the lower ACE inhibition number? Output the label that corresponds to your choice.
Result: Q
(Q: 50%, P: 80%)
